Each entry below lists one item and its recorded solubility thermodynamic value.
# TEST_DESCRIPTION: LYSA solubility assay
# Assay type: physicochemical
# CONDITION_LABEL: 0.05 M phosphate buffer, pH 6.5, aqueous buffer, thermodynamic from solid

Please review the entries below; each comes with its answer.
INSERT INTO measurements (compound, property, value) VALUES
  ('C[C@@H]1CN(c2ccc(C(F)(F)F)c3ncccc23)C[C@H](C(=O)NC2CC3CNCC(C3)C2)O1 (stereo partly drawn)', 'solubility thermodynamic', '> 660 µg/mL'),
  ('C[C@@H]1CN(c2ccc(C(F)(F)F)c3ncccc23)C[C@H](C(=O)N2CCC(N)CC2)O1', 'solubility thermodynamic', '> 665 µg/mL'),
  ('Cc1ccc(N2C[C@@H](C)O[C@@H](C(=O)N[C@@H]3CNC[C@@H]3F)C2)c2cccnc12', 'solubility thermodynamic', '> 435 µg/mL'),
  ('C[C@@H]1CN(c2ccc(C(F)(F)F)c3ncccc23)C[C@H](C(=O)NC2CCCNCC2)O1 (stereo partly drawn)', 'solubility thermodynamic', '> 680 µg/mL'),
  ('C[C@@H]1CN(c2ccc(C(F)(F)F)c3ncccc23)C[C@H](C(=O)NC2CNCC(F)(F)C2)O1 (stereo partly drawn)', 'solubility thermodynamic', '480 µg/mL');

Note: attention shifts to another entry.
Prompt: Item C[C@@H]1CN(c2ccc(Br)c3ncccc23)C[C@H](C(=O)NC2CNCC2F)O1 (stereo partly drawn) : provide solubility thermodynamic
Response: > 675 µg/mL
